test system: HeLa; experiment: cells; design: species or system OVCAR-8, NCI/ADR-RES; conditions: Homo sapiens, 96 h, read-out: HeLa / IC50 (nM) ± S.D.)
Below is a list of entries, each paired with its recorded IC50 value.
measurement-type: IC50 (nM)

1) CO[C@@H](/C(C)=C/C=C/C(C)=C/c1coc(C)n1)[C@@H](C)[C@@H]1C[C@H](O)[C@@]2(C)O[C@@H]2/C=C/[C@@H](C)[C@H]2C[C@H](CC(=O)O2)C[C@@H]2O[C@H]2C(=O)O1 | 3
2) CN[C@H](C(=O)N[C@H](C(=O)N(C)[C@H](/C=C(\C)C(=O)O)C(C)C)C(C)(C)C)C(C)(C)c1cn(C)c2ccccc12 | 0.25
3) CC(C)[C@H](O)C(=O)N[C@H]1Cc2ccc3c(c2)[C@]24C5=C(N=C(O5)[C@H](C(C)C)NC1=O)c1nc(Cl)c(o1)-c1c(Cl)[nH]c5cccc(c15)-c1cccc2c1N[C@@H]4O3 [Diazonamide A] | 15

* * *

Below is a list of entries, each paired with its recorded log10 of IC50 value.
system: HeLa; experiment: cells; set-up: species or system OVCAR-8, NCI/ADR-RES; conditions: Homo sapiens, 96 h, read-out: HeLa / IC50 (nM) ± S.D.)
measurement-type: log10 of IC50 (log10 of the value in nM)

1) COc1ccc(C[C@H]2NC(=O)/C=C/C[C@@H]([C@H](C)[C@H]3O[C@@H]3c3ccccc3)OC(=O)[C@H](CC(C)C)OC(=O)[C@H](C)CNC2=O)cc1Cl [cryptophycin 1] | -2.00
2) C=C1C[C@@H]2CC[C@@]34C[C@H]5O[C@H]6[C@@H](O3)[C@H]3O[C@H](CC[C@@H]3O[C@H]6[C@H]5O4)CC(=O)C[C@@H]3[C@@H](OC)[C@@H](C[C@H](O)CN)O[C@H]3C[C@H]3O[C@@H](CC[C@@H]1O2)C[C@@H](C)C3=C [eribulin] | 1.30
3) COc1cc2cc(c1Cl)N(C)C(=O)C[C@H](OC(=O)[C@H](C)N(C)C(C)=O)[C@]1(C)O[C@H]1[C@H](C)[C@@H]1C[C@@](O)(NC(=O)O1)[C@H](OC)/C=C/C=C(\C)C2 [Maytansine] | 0.30
4) CC[C@]1(O)C[C@@H]2CN(CCc3c([nH]c4ccccc34)[C@@](C(=O)OC)(c3cc4c(cc3OC)N(C)[C@H]3[C@@](O)(C(=O)OC)[C@H](OC(C)=O)[C@]5(CC)C=CCN6CC[C@]43[C@@H]65)C2)C1 [vinblastine] | 0.78
5) CC[C@H](C)[C@@H]([C@@H](CC(=O)N1CCC[C@H]1[C@H](OC)[C@@H](C)C(=O)N[C@@H](Cc1ccccc1)c1nccs1)OC)N(C)C(=O)[C@@H](NC(=O)[C@H](C(C)C)N(C)C)C(C)C [dolastatin 10] | -1.40
